Reported ED50 values for a set of compounds
Assay Name: Subcutaneous Pentylenetetrazol (Metrazol) Seizure Threshold Test
Type: in vivo, male Carworth Farms #1 mice or Sprague-Dawley rats
Conditions: Mus musculus, ip, read-out: ED50 for inhibition of seizures, Metrazol (Phase II)
Assay Readout: ED50 (mg/kg)

> print(dat)
                                   compound  unit.descriptor  observed
1  CN1C(=O)CN=C(c2ccccc2)c2cc(Cl)ccc21 [Diazepam, reference compound]            mg/kg      0.17
2  CCC1(c2ccccc2)C(=O)NC(=O)NC1=O [Phenobarbital, reference compound]            mg/kg        13
3  CCC1(CCC(C)C)C(=O)NC(=O)NC1=O [Amobarbital, reference compound]            mg/kg        53
4  O=C1CN=C(c2ccccc2Cl)c2cc([N+](=O)[O-])ccc2N1 [Clonazepam, reference compound]            mg/kg       0.2
5  O=C1Nc2ccc(Cl)cc2C(c2ccccc2Cl)=NC1O (centres unmarked) [Lorazepam, reference compound]            mg/kg      0.02

###

Assay Name: Anticonvulsant activity, both or unspecified seizure models
Type: in vivo, male Carworth Farms #1 mice or Sprague-Dawley rats
Conditions: Table X; IP; challenge time

Compound	Time of peak activity (Phase II)
CCC1(CCC(C)C)C(=O)NC(=O)NC1=O [Amobarbital, reference compound]	0.25 h
O=C1CN=C(c2ccccc2Cl)c2cc([N+](=O)[O-])ccc2N1.O=C1CN=C(c2ccccc2Cl)c2cc([N+](=O)[O-])ccc2N1.[Cl-].[Cl-].[Cu+2]	0.5 h
O=C1Nc2ccc(Cl)cc2C(c2ccccc2Cl)=NC1O (stereo not drawn) [Lorazepam, reference compound]	1 h
CCC1(c2ccccc2)C(=O)NC(=O)NC1=O [Phenobarbital, reference compound]	1 h
CCC1(c2ccccc2)C(=O)[N-]C(=O)NC1=O.CCC1(c2ccccc2)C(=O)[N-]C(=O)NC1=O.[Cu+2].c1ccncc1.c1ccncc1	2 h
CN1C(=O)CN=C(c2ccccc2)c2cc(Cl)ccc21 [Diazepam, reference compound]	1 h
O=C1NC(=O)C(c2ccccc2)(c2ccccc2)N1 [Dilantin, Phenytoin, reference compound]	1 h
CCC1(c2ccccc2)C(=O)[N-]C(=O)NC1=O.CCC1(c2ccccc2)C(=O)[N-]C(=O)NC1=O.CCC1(c2ccccc2)C(=O)[N-]C(=O)NC1=O.CCC1(c2ccccc2)C(=O)[N-]C(=O)NC1=O.O.O.[Cu+2].[Na+].[Na+] [Na2 [Cu(II)(Phenobarbital)4](H2 O)2]	6 h
CCC1(CCC(C)C)C(=O)[N-]C(=O)NC1=O.CCC1(CCC(C)C)C(=O)[N-]C(=O)NC1=O.CCC1(CCC(C)C)C(=O)[N-]C(=O)NC1=O.CCC1(CCC(C)C)C(=O)[N-]C(=O)NC1=O.O.O.O.O.O.[Cu+2].[Cu+2]	0.5 h
CCC1(c2ccccc2)C(=O)[N-]C(=O)NC1=O.CCC1(c2ccccc2)C(=O)[N-]C(=O)NC1=O.O.O.O.[Cu+2]	2 h
O.O.O.O=C1[N-]C(=O)C(c2ccccc2)(c2ccccc2)N1.O=C1[N-]C(=O)C(c2ccccc2)(c2ccccc2)N1.[Cu+2] [Cu(II)(Dilantin)2 (H2 O)3]	4 h
CCCC(CCC)C(=O)O [Valproic Acid, reference compound]	0.25 h
